- TARGET_OR_SYSTEM: hERG channel (Homo sapiens (Human), UniProt Q12809)
- Sequence (Q12809 whole entry): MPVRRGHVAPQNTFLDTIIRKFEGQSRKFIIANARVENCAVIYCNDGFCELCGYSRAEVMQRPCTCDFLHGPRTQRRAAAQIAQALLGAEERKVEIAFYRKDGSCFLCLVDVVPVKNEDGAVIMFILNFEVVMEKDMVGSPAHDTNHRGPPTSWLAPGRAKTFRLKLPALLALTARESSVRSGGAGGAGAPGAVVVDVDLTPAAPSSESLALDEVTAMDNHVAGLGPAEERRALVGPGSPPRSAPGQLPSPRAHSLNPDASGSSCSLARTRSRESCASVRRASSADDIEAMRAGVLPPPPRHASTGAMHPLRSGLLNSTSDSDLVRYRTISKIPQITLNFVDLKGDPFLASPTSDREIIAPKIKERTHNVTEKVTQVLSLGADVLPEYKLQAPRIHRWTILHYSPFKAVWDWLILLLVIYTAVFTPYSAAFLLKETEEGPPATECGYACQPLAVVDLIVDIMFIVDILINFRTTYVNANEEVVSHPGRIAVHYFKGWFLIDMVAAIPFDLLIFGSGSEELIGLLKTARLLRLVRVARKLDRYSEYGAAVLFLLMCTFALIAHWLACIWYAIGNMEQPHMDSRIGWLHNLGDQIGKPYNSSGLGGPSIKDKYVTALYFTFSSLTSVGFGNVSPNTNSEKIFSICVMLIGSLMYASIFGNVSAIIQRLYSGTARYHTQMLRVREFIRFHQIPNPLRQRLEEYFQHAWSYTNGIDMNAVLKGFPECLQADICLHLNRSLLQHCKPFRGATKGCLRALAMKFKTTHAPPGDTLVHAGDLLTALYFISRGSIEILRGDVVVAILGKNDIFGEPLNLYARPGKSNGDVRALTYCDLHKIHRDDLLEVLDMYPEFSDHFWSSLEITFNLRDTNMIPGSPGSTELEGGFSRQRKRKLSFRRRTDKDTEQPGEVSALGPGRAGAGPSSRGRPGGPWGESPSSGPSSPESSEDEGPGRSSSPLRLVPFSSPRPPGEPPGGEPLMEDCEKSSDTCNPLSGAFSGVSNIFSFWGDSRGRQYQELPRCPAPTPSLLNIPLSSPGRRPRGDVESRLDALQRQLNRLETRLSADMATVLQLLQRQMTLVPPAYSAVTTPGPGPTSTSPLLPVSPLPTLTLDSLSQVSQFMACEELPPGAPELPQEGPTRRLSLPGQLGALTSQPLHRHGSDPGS
- EXPERIMENT_SUMMARY: [3H]Dofetilide binding assay, HEK-293 cell membrane preparation
- CONDITION_NOTES: [3H]dofetilide, HEK-293 cell membranes; read-out: hERG Binding: Mean Ki ± Standard Deviation
PROPERTY_NAME: Ki (nM)

| MOLECULE | TARGET_OR_SYSTEM | UNIT_TEXT | MEASURED_VALUE |
| --- | --- | --- | --- |
| CC(Cc1ccc(N)cc1)NCCCc1ccc(F)cc1 (centres unmarked) [Compound 110] | hERG channel (Homo sapiens (Human), UniProt Q12809) | nM | 2590 |
| OCC(Cc1ccc(F)cc1)NCCCc1ccc(F)cc1 (centres unmarked) | hERG channel (Homo sapiens (Human), UniProt Q12809) | nM | 1150 |
| CC(Cc1ccccc1)NCCCc1ccc(S)cc1 (centres unmarked) | hERG channel (Homo sapiens (Human), UniProt Q12809) | nM | 4190 |
| FCC(Cc1ccc(F)cc1)NCCCc1ccc(F)cc1 (centres unmarked) | hERG channel (Homo sapiens (Human), UniProt Q12809) | nM | 5700 |
| CC(Cc1ccc(-c2cncnc2)cc1)NCCCc1ccc(Cl)cc1 (centres unmarked) | hERG channel (Homo sapiens (Human), UniProt Q12809) | nM | 199 |
| CC(Cc1ccc([N+](=O)[O-])cc1)NCCCc1ccc(F)cc1 (centres unmarked) [Compound 119] | hERG channel (Homo sapiens (Human), UniProt Q12809) | nM | 130 |
| CCC(Cc1ccccc1)NCCCc1ccc(O)cc1 (centres unmarked) | hERG channel (Homo sapiens (Human), UniProt Q12809) | nM | 2380 |
| FCC(Cc1ccc(F)cc1)NCCCc1ccc(Cl)cc1 (centres unmarked) | hERG channel (Homo sapiens (Human), UniProt Q12809) | nM | 2340 |
| CC(Cc1ccccc1)NCCCc1ccc([N+](=O)[O-])cc1 (centres unmarked) | hERG channel (Homo sapiens (Human), UniProt Q12809) | nM | 96.1 |
| CC(Cc1ccc(Cl)cc1)NCCCc1ccc([N+](=O)[O-])cc1 (centres unmarked) | hERG channel (Homo sapiens (Human), UniProt Q12809) | nM | 28.8 |
| CC(Cc1ccc(F)cc1)NCCCc1ccc(N)cc1 (centres unmarked) | hERG channel (Homo sapiens (Human), UniProt Q12809) | nM | 3980 |
| CC(Cc1ccc(NC=O)cc1)NCCCc1ccc(F)cc1 (centres unmarked) [Compound 88] | hERG channel (Homo sapiens (Human), UniProt Q12809) | nM | 738 |
| CC(Cc1ccc(C(F)(F)F)cc1)NCCCc1ccncc1 (centres unmarked) [Compound 164] | hERG channel (Homo sapiens (Human), UniProt Q12809) | nM | 1890 |
| CC(Cc1ccc(F)cc1)NCCCc1ccc(Br)cc1 (centres unmarked) [Compound 146] | hERG channel (Homo sapiens (Human), UniProt Q12809) | nM | 546 |
| CC(Cc1ccc([N+](=O)[O-])cc1)NCCCc1ccc(Cl)cc1 (centres unmarked) | hERG channel (Homo sapiens (Human), UniProt Q12809) | nM | 82 |
| CC(Cc1ccc(F)cc1)NCCCc1ccncc1 (centres unmarked) | hERG channel (Homo sapiens (Human), UniProt Q12809) | nM | 3770 |
| CC(Cc1ccc(N)cc1)NCCCc1ccc(F)cc1 (centres unmarked) [Compound 111] | hERG channel (Homo sapiens (Human), UniProt Q12809) | nM | 2500 |
| CCOC(=O)c1ccc(CCCNC(C)Cc2ccc(F)cc2)cc1 (centres unmarked) | hERG channel (Homo sapiens (Human), UniProt Q12809) | nM | 1410 |
| CC(Cc1ccc(NC=O)cc1)NCCCc1ccc(F)cc1 (centres unmarked) [Compound 90] | hERG channel (Homo sapiens (Human), UniProt Q12809) | nM | 738 |
| CC(Cc1ccc(N)cc1)NCCCc1ccccc1 (centres unmarked) | hERG channel (Homo sapiens (Human), UniProt Q12809) | nM | 4610 |
| CC(Cc1ccccc1)NCCCc1ccc(I)cc1 (centres unmarked) [Compound 214] | hERG channel (Homo sapiens (Human), UniProt Q12809) | nM | 3040 |
| CC(Cc1ccc(F)cc1)NCCCc1ccc([N+](=O)[O-])cc1 (centres unmarked) | hERG channel (Homo sapiens (Human), UniProt Q12809) | nM | 67.1 |
| CC(Cc1ccccc1)NCCCc1ccc(I)cc1 (centres unmarked) [Compound 212] | hERG channel (Homo sapiens (Human), UniProt Q12809) | nM | 642 |
| FCC(Cc1ccc(F)cc1)NCCCc1ccnc2ccccc12 (centres unmarked) | hERG channel (Homo sapiens (Human), UniProt Q12809) | nM | 4700 |
| CC(Cc1ccc(Br)cc1)NCCCc1ccncc1 (centres unmarked) | hERG channel (Homo sapiens (Human), UniProt Q12809) | nM | 880 |
| CC(Cc1ccc(F)cc1)NCCCc1ccc2[nH]ccc2c1 (centres unmarked) | hERG channel (Homo sapiens (Human), UniProt Q12809) | nM | 1550 |
| CC(Cc1ccc([N+](=O)[O-])cc1)NCCCc1ccc(F)cc1 (centres unmarked) [Compound 117] | hERG channel (Homo sapiens (Human), UniProt Q12809) | nM | 206 |
| CC(Cc1ccc(F)cc1)NCCCc1ccc(Br)cc1 (centres unmarked) [Compound 145] | hERG channel (Homo sapiens (Human), UniProt Q12809) | nM | 506 |
| CC(Cc1ccc(N)cc1)NCCCc1ccc(F)cc1 (centres unmarked) [Compound 109] | hERG channel (Homo sapiens (Human), UniProt Q12809) | nM | 2590 |
| CC(Cc1ccc(F)cc1)NCCCc1ccccc1 (centres unmarked) | hERG channel (Homo sapiens (Human), UniProt Q12809) | nM | 2050 |
| CC(Cc1ccc([N+](=O)[O-])cc1)NCCCc1ccccc1 (centres unmarked) | hERG channel (Homo sapiens (Human), UniProt Q12809) | nM | 285 |
| CC(Cc1ccc(Br)cc1)NCCCc1ccc(Cl)cc1 (centres unmarked) | hERG channel (Homo sapiens (Human), UniProt Q12809) | nM | 196 |
| CC(Cc1ccccc1)NCCCc1ccc(N)cc1 (centres unmarked) | hERG channel (Homo sapiens (Human), UniProt Q12809) | nM | 5340 |
| COc1ccc(CC(C)NCCCc2ccc([N+](=O)[O-])cc2)cc1 (centres unmarked) | hERG channel (Homo sapiens (Human), UniProt Q12809) | nM | 42.3 |
| CC(Cc1ccncc1)NCCCc1ccc(F)cc1 (centres unmarked) | hERG channel (Homo sapiens (Human), UniProt Q12809) | nM | 3320 |
